B1: Homeobox protein SIX3, residues 212 to 262; numbered along this chain, O95343 (parent)
chain: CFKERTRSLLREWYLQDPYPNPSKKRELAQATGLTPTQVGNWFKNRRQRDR

variants of: B1; test: abundance fitness (aPCA) (normalised: wild type 0, dead -1); higher = more abundant; growth selection in yeast, the domain comes from the species named; conditions: Homo sapiens
Is abundance fitness at least -0.3? Then Fulfilled. If not, Not fulfilled.

Observe how each entry below is paired with its result.
* L34K | Not fulfilled
* L34H | Not fulfilled
* S23T | Fulfilled
* Q30I | Fulfilled
* T35L | Not fulfilled
* S23N | Fulfilled

// query Does P36L have a reported abundance fitness of at least -0.3?
// result Fulfilled
